Tested on: A498 renal
EXPERIMENTAL PROTOCOL: NCI-60 one-dose screen, 48 h (100 = growth as untreated, 0 = no growth, -100 = all killed)
EXPERIMENTAL CONDITIONS: 10 µM unless noted
About 83,000 compounds went through this panel and 20% of them were active in at least one assay; those are over-represented in the sample as a whole.
RECORDED METRIC: growth (%)
Entry rule: numbers only, all in %.

# annotated cases, reported growth shown
CCNC(=O)c1[nH]cc(-c2ccccc2)c1-c1cc(OC)c2c(c1OC)OCO2: 77.1
CCCCN[C@H]1CC[C@@]2(C)[C@@H](CC[C@@]3(C)[C@H]2[C@H](O)C[C@H]2/C(=C(\CCC=C(C)C)C(=O)OC)[C@@H](OC(C)=O)C[C@@]23C)[C@@H]1C: 97.7
COc1ccc2c(c1)[n+]([O-])c(C(=O)/C=C/C=C(\Cl)c1cc(OC)c(OC)c(OC)c1)c(C)[n+]2[O-]: 96.6
COc1ccc(-c2ccc3cnc4sc(-c5ccc(OC)cc5)nc4c3n2)cc1: 63.4

May I ask what growth has been recorded for CCN1C(=O)N(CC)C2C1NN=c1s/c(=C\c3cccc([N+](=O)[O-])c3)c(=O)n12 (configuration not stated) ? 13

May I ask what growth has been recorded for `COC(=O)c1cc(-c2ccc(OC)cc2)[nH]c1N/N=C/c1c(Cl)cccc1Cl` ? -2.53

---

Test system: HS 578T breast
EXPERIMENTAL PROTOCOL: NCI-60 one-dose screen, 48 h
EXPERIMENTAL CONDITIONS: 10 µM unless noted
Procedure: Growth inhibition of the HS 578T human tumor cell line is measured as a screen for anti-cancer activity. Cells are grown in 96 well plates and exposed to the test compound for 48 hours. Compounds are tested at a single concentration, which is 10^-5 M for most compounds. The reported endpoint is percent growth (GI% or GIPRCNT), where numbers from 0 - 100% represent growth inhibition, and numbers from -100% - 0 represent cell death. For example, a value of 40 represents 60% growth inhibition. […]
This is part of a sample that, as a whole, favours compounds with a hit. Of some 83,000 tested, about 20% had one in any assay. The source made the active and inactive calls. The calls were made as follows: active = growth percent below 10; inactive = the rest.
// one of active, inactive, no free text

Oc1c(Cl)cc(Cl)c2ccc(Cn3cc(-c4cc(F)cc(F)c4)nn3)nc12: inactive

So what was the verdict on `N#C/C(=C\c1ccc2ccccc2c1)c1cc2ccccc2[nH]1` in this test? inactive

So what was the verdict on `Cc1ccc(-c2nc3nc(-c4ccc(F)cc4)nc(N4CCNCC4)c3o2)cc1` in this test? active

So what was the verdict on `O=S(=O)(Nc1cc(Br)c(O)c2ccccc12)c1ccc(F)cc1` in this test? inactive

So what was the verdict on CNc1nc(S(=O)c2ccc(C#N)cc2)nc2ccccc12 (stereo not drawn) in this test? inactive

So what was the verdict on `COc1ccc(-c2nc3c(c(-c4ccccc4)nn3-c3ccccc3)c(-c3ccc(N4CCOCC4)cc3)c2C#N)cc1` in this test? inactive

So what was the verdict on `O=C1C(Cl)=C(Oc2ccccc2)C(=O)c2ccccc21` in this test? inactive

So what was the verdict on `Nc1c(C(=O)Nc2ccncc2)sc2nc3c(cc12)CCCCCC3` in this test? inactive

So what was the verdict on `COc1cc(CNC(=O)/C=C/C=C/c2ccc3c(c2)OCO3)ccc1OCc1cn(-c2ccc(C)c(C)c2)nn1` in this test? inactive

So what was the verdict on `Brc1ccc2[nH]cc(-c3nonc3-c3c[nH]c4ccccc34)c2c1` in this test? inactive

So what was the verdict on `C=CCc1c2c(c(OC)c3ccoc13)C(=O)/C(=C/c1ccccc1OC)O2` in this test? inactive

So what was the verdict on `COc1ccccc1NC(=O)Cn1cc(CN2CCN(c3ccnc4cc(Cl)ccc34)CC2)nn1` in this test? inactive

So what was the verdict on `N#Cc1nc(-c2ccccc2)oc1S(=O)(=O)N1CCOCC1` in this test? inactive

So what was the verdict on `CCn1c(=S)sc2c(Nc3ccc(F)cc3)nc(-c3cccnc3)nc21` in this test? inactive

So what was the verdict on `COc1ccccc1Nc1nc2c(s1)C1=CC[C@H]3[C@@H]4CC[C@H]([C@H](C)CCCC(C)C)[C@@]4(C)CC[C@@H]3[C@@]1(C)CC2` in this test? inactive

So what was the verdict on `O=C(NCc1ccccc1)Nc1ccccc1CNc1nc(Nc2ccc(OCCN3CCCC3)cc2)ncc1Cl` in this test? inactive

So what was the verdict on `CO[C@H]1/C=C(/C)CCC[C@H](C)[C@H](O)[C@@H](C)C(=O)C(C)(C)[C@@H](O)CC(=O)O[C@@H]1/C(C)=C/c1csc(C)n1` in this test? active

So what was the verdict on `Cn1cc(-c2nc(-c3c[nH]c4ccncc34)cs2)c2ccccc21` in this test? inactive

---

Measured growth accompanies every entry in the list below.
Test system: RXF 393 renal
EXPERIMENTAL PROTOCOL: NCI-60 one-dose screen, 48 h (100 = growth as untreated, 0 = no growth, -100 = all killed)
EXPERIMENTAL CONDITIONS: 10 µM unless noted
Method: Cells are grown in 96 well plates and exposed to the test compound for 48 hours. Compounds are tested at a single concentration, which is 10^-5 M for most compounds. The reported endpoint is percent growth (GI% or GIPRCNT), where numbers from 0 - 100% represent growth inhibition, and numbers from -100% - 0 represent cell death. For example, a value of 40 represents 60% growth inhibition. A value of 0 means no net growth occurred over the course of the experiment. […]
Compounds without any hit were thinned out: in the full panel of roughly 83,000, 20% have a hit.
Entry rule: numbers only, all in %.

# annotated cases, reported growth shown
CCn1cc(C(=O)N/N=C/c2cccs2)c(=O)c2cc(F)c(N3CCNC(C)C3)c(F)c21 (stereo not drawn): 16.2
CCc1ccc(C(=O)/C=C/C23c4ccccc4C(c4ccccc42)C2C(=O)NC(=O)C23)cc1 (stereo not drawn): -48.7
N#Cc1nc(-c2ccccc2)oc1S(=O)(=O)N1CCOCC1: 91
Cc1nc(-c2ccccc2)cc2c(O)c(C(=O)NN)[nH]c(=O)c12: 101

Turning to the following compound.
May I ask what growth has been recorded for `COc1ccc(C(=O)Nc2ncc(Cc3cccc(Cl)c3)s2)cc1OC` ? -7.25

---

Tested on: MDA-MB-435 melanoma
EXPERIMENTAL PROTOCOL: NCI-60 one-dose screen, 48 h (100 = growth as untreated, 0 = no growth, -100 = all killed)
EXPERIMENTAL CONDITIONS: 10 µM unless noted
This is part of a sample that, as a whole, favours compounds with a hit. Of some 83,000 tested, about 20% had one in any assay.
Decide using growth alone. Strictly below 90%: MET. Equal to or above 90%: NOT MET.

CC(C)CCNC(=O)Cn1cccc(NC(=O)OCc2ccccc2)c1=O: NOT MET
C[C@]12CC[C@@H]3c4ccc(O)c([N+](=O)[O-])c4CC[C@H]3[C@@H]1CCC2=O: NOT MET
COc1cccc(/C=C/C(=O)c2cc3c(N)c(C(=O)Nc4ccccc4)sc3nc2C)c1: MET
CN(CCOc1ccc(C#N)cc1)CCOc1ccc(C#N)cc1: MET
CCCCN1C(=O)/C(=c2\sc3n(c2=O)C2C(NN=3)N(CC)C(=O)N2CC)c2ccccc21 (stereo unspecified): MET

Is growth strictly under 90% for the entry `Cc1ccc(-c2cc(-c3ccc(Cl)cc3)nc(NC(=O)c3cccnc3)n2)cc1` ? NOT MET

Is growth strictly under 90% for the entry CCOC(=O)CNP(=O)(OC[C@@H](Cc1ccccc1)NC(=O)c1cc2ccccc2s1)Oc1ccccc1 (stereo partly specified) ? MET

Is growth strictly under 90% for the entry `CCOC(=O)c1nc(Nc2ccc(NC(=O)Nc3ccc(F)cc3)cc2)c2ccccc2n1` ? NOT MET

Is growth strictly under 90% for the entry `C=C1C(=O)O[C@H]2[C@H]1CC/C(COC(=O)CCSCCC(=O)OC/C1=C/CC[C@@]3(C)O[C@H]3[C@H]3OC(=O)C(=C)[C@@H]3CC1)=C\CC[C@@]1(C)O[C@@H]21` ? MET

Is growth strictly under 90% for the entry `Cc1c(-c2nc3ccc(F)cc3c(=O)[nH]2)c2ccccc2n1C` ? MET

Is growth strictly under 90% for the entry `C=CCc1c(O)c(C(=O)/C=C/c2ccc(Cl)cc2)c(OC)c2ccoc12` ? MET

---

System: HT29 colon
EXPERIMENTAL PROTOCOL: NCI-60 one-dose screen, 48 h
EXPERIMENTAL CONDITIONS: 10 µM unless noted
About 83,000 compounds went through this panel and 20% of them were active in at least one assay; those are over-represented in the sample as a whole. Calls of active or inactive are those of the source. Rule for the calls: active = growth percent below 10; inactive = the rest.
// one of class 1 for active, class 0 for inactive, no free text

So what was the verdict on `CC(C)(C)c1cc(-c2nc3ccc(N4CCN(S(C)(=O)=O)CC4)cc3[nH]2)cc(C(C)(C)C)c1O` in this test? class 0

So what was the verdict on `O=C(N/N=C/c1ccc(F)cc1)c1ccc(C(F)(F)F)nc1Nc1cccc(C(F)(F)F)c1` in this test? class 1

So what was the verdict on O=C(CCCCC1CCSS1)Nc1ncnc2n[nH]c(-c3ccc(Oc4ccccc4)cc3)c12 (stereo not given) in this test? class 0
